testDescription: HT29 colon tumor cell growth inhibition, primary screen, imaging, high content imaging, 72 h, CellTiter-Glo (AID 772)
measurementSetup: HCS imaging cell count, at 10 µM
About 20 (0.6%) of roughly 3,300 compounds were called active.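 How the source made its calls: active means growth inhibition above 90%, meaning viable cell count cut by more than 90% versus vehicle controls; inactive means growth inhibition below 90%.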 This excerpt belongs to a sample that is enriched for actives.
Pick from active, inactive when you respond.

What was the test verdict on O=C1C(=O)N(Cc2cccnc2)C(c2ccccn2)/C1=C(/O)c1ccc(Br)cc1 (stereo not given) ? inactive

Input "CCOc1cccc(-c2nn3c(-c4ccco4)nnc3s2)c1" inactive

Repeat for the following molecule: "Cc1nc2sccn2c(=O)c1CCN1CCC(=C(c2ccccc2)c2ccc(F)cc2)CC1" inactive

Could you do the same for "Cc1nn(C)cc1C1C2=C(CC(C)(C)CC2=O)OC2=C1C(=O)CC(C)(C)C2" , please? inactive

Follow-up item: "Cc1nc2ccccn2c(=O)c1CCN1CCC(C(=O)c2ccc(F)cc2)CC1" inactive

Next molecule: "c1ccc(Cc2nn[nH]n2)cc1" inactive

Try this molecule too: "Cn1c(=O)c2c(nc(Br)n2Cc2ccc3ccccc3c2)n(C)c1=O" inactive

"CCOc1ccc(-c2nc(C#N)c(N3CCN(CC)CC3)o2)cc1" , same question. inactive

And for "Cc1cc(C)nc(N(C#N)CC(=O)N(c2ccccc2)C(C)C)n1" ? inactive

What about "CN1CCc2nc(SCC(=O)Nc3ccc(Cl)cc3)c(C#N)cc2C1" ? inactive

Now this one: "Cc1nc2sccn2c(=O)c1CCN1CCC(=C(c2ccc(F)cc2)c2ccc(F)cc2)CC1" active

Likewise for "CCOC(=O)CC(=O)CSc1nc2c(cc1C#N)CCCCCC2" ? inactive

// repeat for CN(C)CC(O)COc1ccc(C(C)(C)c2ccc(OCC(O)CN(C)C)cc2)cc1 (stereo not given) and report inactive

What do you get for "COc1cc2nc(N3CCN(C(=O)c4ccco4)CC3)nc(N)c2cc1OC" ? active

What about "CC(C)Sc1nnc2n(CCc3ccccc3)c(=O)c3c4c(sc3n12)COC(C)(C)C4" ? inactive

How about this molecule: "COc1cccc(-c2nnc3sc(-c4ccc(Cl)cc4)nn23)c1" inactive

Then this molecule: Cc1ccc(C2/C(=C(/O)c3cnn(-c4ccccc4)c3C)C(=O)C(=O)N2CCN2CCOCC2)o1 (stereo not given) inactive

Again, but for "COc1ccc2[nH]c(C)c(C(=O)CN3CCN(C(=O)c4ccco4)CC3)c2c1" inactive

Next molecule up: COc1ccccc1C(=O)N1CCCC1(C#N)c1ccccc1 (stereo not given) inactive

Cc1cc(C)cc(CC2CC(=O)N(c3cc(C)on3)C2=O)c1 (stereo not given) ? inactive

Next record, please: CC1(C)CC(=O)C2=C(C1)OC(N)=C(C#N)C2C1C=CCCC1 (stereo not given) inactive

Now this one: "CCCCCSc1nc(N2CCOCC2)c2c(c1C#N)CC(C)(C)OC2" inactive

Same thing, different molecule: "CC1(C)Cc2c(C#N)c(SCCOc3ccccc3)nc(N3CCOCC3)c2CO1" inactive

Let us now turn to "Cn1c(Cl)nc2c1c(=O)n(Cc1cccc(Br)c1)c(=O)n2C" inactive

Moving on to "CCOC(=O)CSc1nc(NC#N)nc(N(CC)CC)n1" inactive

The origin of these recorded values is PubChem BioAssay AID772.
